test: yeast display, Sf9 membrane polyspecificity reagent, FACS + sequencing; frameworks hold sequencing errors
Experimental endpoint: polyreactivity (PSR sort gate)

Example sequences with recorded polyreactivity (PSR sort gate):
QVQLVESGGGLVQAGGSLRLSCAASGFIFGWNAMGWYRQAPGKEREFVAAITSSGTSTYYADSVKGRFTISRDNAKNTVYLQMNSLKPEDTAVYYCATEGWPFYPARDYDYWGQGTQVTVSS
low polyreactivity
QVQLVESGGGLVQAGGSLRLSCAASGFIFIRYAMGWYRQAPGKERELVAAISASGVRTYYADSVKGRFTISRDNAKNTVYLQMNSLKPEDTAVYDCAVRSAWVYGIGRYYWGQGTQVTVSS
high polyreactivity
QVQLVESGGGLVQAGGSLRLSCAASGRTLRINAMGWYRQAPGKERELVAAISRSGGRTYYADSVKGRFTISRDNAKNTVYLQRNSLKPEDTAVYYCATGGVAYNYGWGQYYYWGQGTQVTVSS
high polyreactivity
QVQLVESGGGLVQAGGSLRLSCAASGSIFVGNAMGWYRQAPGKERELVAAISSSGGRTFYADSVKGRFTISRDNAKNTVYLQMNSLKPEDTAVYYCAAVYTHWQQRMDYWGQGTQVTVSS
high polyreactivity
QVQLVESGGGLVQAGGRLRLSCAASGRTLGANAMGWYRQAPGKERELVAAITDSGGSTYYADSVKGRFTISRDNAKNTVYLQMNSLKPEDTAVYYCAAKQAYSSTYVWPIFDYWGQGTQVTVSS
low polyreactivity

# lookup: polyreactivity (PSR sort gate) of `QVQLVESGGGLVQAGGSLRLSCAASGSTLAPYVMGWYRQAPGKERELVSVISTRTGRTSYADSVKGRFTLSRDNAKNTVYLQMNSLKPEDTAVYYCNAQWVSWWSLYDYWGQGTQVTVSS`
high polyreactivity

# lookup: polyreactivity (PSR sort gate) of `QVQLVESGGGLVQAGGSLRLSCAASGRTFEGNAMGWSRQAPGKERELVAAISGSGGRTYYADSVKGRFTISRDNAKNTVYLQMNSLKPEDTAVYYATLYSVYNPWRFNYWGQGTQVTVSS`
high polyreactivity

# lookup: polyreactivity (PSR sort gate) of `QVQLVESGGGLVQAGGSLRLSCAASGIIFWRHVMGWYRQAPGKERELVATISTRGGNTYYADSVKGRFTISRDNAKNTVYLQMNSVKPEDTAVYYCAAGKNGYTYSRSYSYGYWGQGTQVTVSS`
high polyreactivity

# lookup: polyreactivity (PSR sort gate) of `QVQLVESGGGLVQAGGSLRLSCAASGFTFRYYAMGWYRQAPGTERELVAGITRSGGSTYYADSVKGRFTISRDNAKNTVYLQMNSLKPEDTAVYYCAAYRSIYGTRAPREFESWGQGTQVTVSS`
high polyreactivity

# lookup: polyreactivity (PSR sort gate) of `QVQLVESGGGLVQAGGSLRLSCAASGRTFQYYAMGWYRPAPGKERELVAALSSRGGSTYYADSVKGRFTISRDNAKNTVSLQMNSLKPEDTAVYYCAAYVLPRQRVRSDYWGQGTQVTVTS`
high polyreactivity

----------
assay: yeast display, Sf9 membrane polyspecificity reagent, FACS + sequencing; frameworks hold sequencing errors
Experimental endpoint: polyreactivity (PSR sort gate)

QVQLVEAGGGLVQAGGSLRLSCAASVSTLFFNAMGWYRQGTGKERELVAGITDGGNTNYADSVKGRFTISRDNAKNTVYIQMNSLKPEDTAVYYCATDGVNPFYAYDYWGQGTQVTVSS
low polyreactivity
QVQLVESGGGLVQAGGSLRLSCAASGSIFVGYAMGWYRQAPGKERELVASITTPGGSTHYADSVKGRFTISRDNAKNTVYLQMNSLKPEDTAVYYCAADSLSNGVLQYLPGYDYWGQGTQVTVSS
low polyreactivity

----------
assay: yeast display, Sf9 membrane polyspecificity reagent, FACS + sequencing; frameworks hold sequencing errors
Experimental endpoint: polyreactivity (PSR sort gate)

QVQLVETGGGLVQAGGSLRLSCAASGRIFSNYVMGLYRQAPVKERELVAAISGSGGRTYYADSVKGRFTISRDNAKNTVYVQMNSRTPEDTAVYYCAARRSERDRYGGYYYWGQGTQVTVSS
high polyreactivity
QVQLVESGGGLVHAGGSLRLSSAASGRTFLSYTMGWYRQAPGKERELVAVISRSGGRTYYADSVKGRFTISRDNATNTVYLQMNSLKPEDTADYYCAADTYRGYDFDYWGQGSQVTVSS
high polyreactivity
QVQLVESGGGLVQAGGSLRLSCAASGSTFYKYAMGWYRQAPGIEPELVAAISRGGSTYYADSVKGRFTISRDNAKNTVYLQMNSLKPEDTAVYYCAAETVSYYSKYDYWGQGTQVTVSS
low polyreactivity
QVQLVESGGGLVQAGGSLRLSCAASGRTFFKIAMGWYRQAPGKERELVASISSRSGTTYYADSVKGRFTISRDNAKNTVYLQMNSLKPEDTAVYYCAASRNRYSYGYWGQGTQVTVSS
high polyreactivity
QVQLVESGGGLVQAGGSLRLSCAASGSNFTAYAMGWYRQAPGKERELVAAITKSSVTYYADSVKGRFTISRDNAKNTVYLQMNSVKPEDTAVYYCAGYSPRPSDLYSPIAYYYWGQGTLVTVSS
low polyreactivity
QVQLVESGGGLVQAGGSLRLSCAASGFTFRRYAMGWYRQAPGKERELVAGITGRGGSTYYADSVKGRFTISRDNAKNTVYLQMNSLKPEDTAVYYCNKPRAARGYLTGQLDYWGQGTQVTVSS
high polyreactivity

// below: polyreactivity (PSR sort gate) requested for another sequence
# lookup: polyreactivity (PSR sort gate) of `QVQLVESGGGLVQAGGSLRLSCAASGRTFAPYALGWYRQAPRKERELVAAITNGGSTSYADSVKGRFTISRDNAKNTVYLQMNSLKPEDTAVYYCAADANRYHRQRWSPYKMYYWGQGTQVTVSS`
low polyreactivity

----------
experiment: yeast display, Sf9 membrane polyspecificity reagent, FACS + sequencing; frameworks hold sequencing errors
Experimental endpoint: polyreactivity (PSR sort gate)

QVQLVESGGGLVQAGGSLRLSCAASGRIFKGYAMGWYRKAPGKERELVAAITISGGSTYYADSVKGRFTISRDNAKNTVYLQMNSLIPEDTAVFYFAARKFVYWYGMEYWGQGTQVTVSS
low polyreactivity
QVQLQESGGGLVQAGGSLRMSCAASGSIFSEANIGWYRQAPGKERELVATIGQGSTTNYADSVKGRFTISRDNAKNNVDLQLTSRKPEETAVYYCAVDTVDPVGFVYWGQGTQVTVRS
low polyreactivity
QVQLVESGGGLVQAGGSLRLSCAASGNIFYVYAMGWYRQAPGKERELVAVISRNDGSTYYADSVKARFTISRDNAKNTVYLQMNSLKPEDTAVYYCNAEWYFWGQGTQVTVSS
low polyreactivity
QVQLVESGGGLVQAGGSLRLSCAASGGTFAVNVMGWYRQAPGKERELVAAITSNGGSTYYADSVNGRFTISRDNAKNTVYLQMNSLKPEDTAVYYCAAEGSGWYTGHYYYWGQGTQVTVSS
low polyreactivity

# lookup: polyreactivity (PSR sort gate) of `QVQLVESGGGLVQAGGSLRLSCAASGNTFPWYAMGWSRQAPGKERELVAAINSGGRTNYADSVKGRFTISRDNAKNTVYLQMNSLKQEDTAVYYCAAAFDWGLYCFDYWGQGTQVTVSS`
high polyreactivity

# lookup: polyreactivity (PSR sort gate) of `QVQLVESGGGLVQAGGSLRLSCAASGSTIYYNAMGWYRQAPGKERELVATITSAGRTNYADSVKGRFTISRDNAKNTVSLLMNSLKPEDTAVYYCNARYRLSRYNYWGQGTQVNVSS`
low polyreactivity

# lookup: polyreactivity (PSR sort gate) of `QVQLVESGGGLVQAGGSLRLSCAASGSTFNSNAMGWYRQAPGKERELVASITWTDVSTYYADSVKGRFTISRDNAKNTVYLQMNSLKPEDTAVYYCAAVTGLSSNDGYDYWGQGTQVTVSS`
low polyreactivity

# lookup: polyreactivity (PSR sort gate) of `QVQLVESGGGLVQAAASLRLSCAAYGITFNSYVMGWSRQAPGKERELVAVISRGGGITYYADSVKGRFTISRDNAKNTVYLQMNSLKPEDTAVYYCAADHTHVYVLYYNDNYWGQGTQVTVSS`
high polyreactivity

# lookup: polyreactivity (PSR sort gate) of `QVQLVESRGGLVQAGGSLSLSCAASGRIFYIYDMGWYRQAPGKERELVAAISTSGGSTFYADSVKGRFTISRDNAKNTVYLQMNSLKPEDTAVYYCAARFRYYGSEYDYWGQGTQVSVSS`
low polyreactivity

# lookup: polyreactivity (PSR sort gate) of `QVQLVESGGGIVQAGGSLRLSCAASGSIFSRKVMGWYRQAPGKDRELVAAISWSGSSTSYADSVKGRFTISRDTAKNTVYLQMNSLKPEDTAVYYCNRYFGQGYWGQGTQVTVSS`
high polyreactivity

----------
test: yeast display, Sf9 membrane polyspecificity reagent, FACS + sequencing; frameworks hold sequencing errors
Experimental endpoint: polyreactivity (PSR sort gate)

QVQLVESGGGLVQAGGSLRLSCAASGSIFAYYTMGWYRQAPGKERELVARISSRGGRTYYADSVKGRFTISRDNAKNTVYLQMNSLKPEDTAVYYCNAGYSYRKYDYWGQGTQVTVSS
high polyreactivity
QVQLVESGGGLVQAGGSLRLSCAASGFIFQYYSMGWYRQAPGKERELVATITSRGGSTYYADSVKGRFTISRDNAKNTVYLQMNSLKPEDTAFYYCNARSSSPRKYGYWGQGTQVTVSS
high polyreactivity
QVQLVESGGGLVQAGGSLRLSCAASGFTFTYYAMGWYRQAPGKERELVAAISWRGTSTFYADSVKGRFTISRDNAKNTVYLQMNSLKPEDTAVYYCATEKWVGYKYWSSRKYDYWGQGTQVTVSS
high polyreactivity
QVQLVESGGGLVQAGGSLRLSCAASGFTPGNVMGWYRQAPGKERELVAAISWSGDSTYYADSVKGRFTISRDNAKNTVYLQMNSLKPEDTAVYYCAARVVGSYRKTYPYGLYYWGQGTQVTVSS
high polyreactivity
QVQLEESGGGLVQAGGSLRLSCAASGSIFVRNAMGWYRQAPGKERELVASISRRGGSTYYADSVKGRFTISRDNAKNTVYLQMISLKPEDTAVYYCAARNQIVPYGTYNYWGQGTQVTVSS
high polyreactivity

# lookup: polyreactivity (PSR sort gate) of `QVQLVESGGGLVQAGGSLRLSCAASGSTLRGYAMGWYRQAPGEERELVAAISRRGSGTYYADSVKGRFTISRDNAKHTVYLQMNSLKPEETAVYYCNAVNGDYEFGYWGQGTQVTVSS`
high polyreactivity

# lookup: polyreactivity (PSR sort gate) of `QVQLQESGGGLVQAGGSQRLSCAASGYIIYFQYMGWYRQAPGKEREFVAAISDGANTNYADSVKGRFTISRDNAKNTEYLQMNSLKPEDTAVYYCAVYADENYYYIYWGQGTQVTVSS`
low polyreactivity

# lookup: polyreactivity (PSR sort gate) of `QVQQQESGGGLVQAGGSLRLSCAASGSISRLDYMGWYRQATGKERELVAAIDNGSTTYYADSVKGRLTISRDNAKYTVYLQMNSLKPEDNAVYFCAAVRGRGGTHAYWGQGTQVTVSG`
low polyreactivity

# lookup: polyreactivity (PSR sort gate) of `QVQLVDSGGGLVQAGGSLRLSCAASGSTCYYYNMGWYRQSPWKERELVAAISFIGGSTYYADSVKGRFTISRDNAKYTVYLQMNSLTPEDTAVFYCAAEFYRWGSLSFSNDYWGQGTQVTVSS`
low polyreactivity
